The reported measurements were obtained from patent US20260193326A1.

measured-on: T1, AAV8
T1 construct: also called adeno-associated virus serotype 8
assay-procedure: SPR, AAV on CM5 chip;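 note: surface plasmon resonance with AAV amine-coupled to the chip as ligand, nanobodies injected as analyte over a concentration series, rate constants and affinity fitted from binding curves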

binder	kon
A4-002 (VHH) VHH: VQLQESGGGLVQPGGSLRLSCAASGRSFSINTMGWYRQAPGKQRELVAAVTRGGSTNYAGSVKGRFTISRDNAKNTVYLQMNSLRPEDTAVYYCHIDEVRQSSWTTSNIWGQGTQVTVSS	107000 M⁻¹ s⁻¹
A4-050 (VHH) VHH: VQLQESGGGLVQPGGSLRLSCAASGSSFVINTMGWYRQAPGKQRELVAAVTRGGSTNYADSVKGRFTISRDNAKNTVYLQMNSLRPEDTAVYYCHVDEVRQSSWTTSNLWGQGTQVTVSS	176000 M⁻¹ s⁻¹
A4-042 (VHH) VHH: VQLQESGGGLVQPGGSLRLSCAASGRAFSINTMGWYRQAPGKQRELVATVTRDGSTNYADSVKGRFTISRDNAKNTVYLQMNSLRPEDTAVYYCHVDEVRQSSWTTSNLWGQGTQVTVSS	3360 M⁻¹ s⁻¹
A4-012 (VHH) VHH: VQLQESGGGAVQAGGSLRLSCAASGSIFSINSMGWYRQAPGKQRELVATVTRGGNTNYAGSVKGRFTISRDNAKNTVYLQMNSLRPEDTAVYYCHVDEVRESSWTTSNLWGQGTQVTVSS	12900 M⁻¹ s⁻¹
